Reference source: patent US20240246946A1

- Experimental system: full length mouse TREX1 (Mus musculus, UniProt Q91XB0)
- Construct: N-terminally His-Tev tagged full length mouse TREX1; made in house; host or cells: E. coli
- Assay method text: mTREX1 Biochemical Assay (fluorescence, dsDNA substrate degradation)
- Protocol conditions: biochemical, read-out: mTREX1 IC50
pIC50: −log10 of the molar value.
Reported values of pIC50 for individual entries

CC(c1nc(C(=O)Nc2cnoc2)c(O)c(=O)n1C)C(c1cnn(C)c1)c1c(C#N)cccc1C#N (single isomer, unassigned) [Example 19 D1E2] : 8.00 to 9.00
Cc1ccc(C(c2ccccc2C#N)C(C)c2nc(C(=O)Nc3cnoc3)c(O)c(=O)n2C)cn1 (single isomer, unassigned) [Example 5 D1E1] : < 8.00
Cc1cn(C)nc1C(c1ccccc1C#N)C(C)c1nc(C(=O)Nc2cnoc2)c(O)c(=O)n1C (single isomer, unassigned) [Example 64 D1E2] : < 8.00

Input: pIC50 for CCn1cc(C(c2cc(F)ccc2C#N)C(C)c2nc(C(=O)Nc3cnoc3)c(O)c(=O)n2C)cn1 (single isomer, unassigned) [Example 17 D2E2] ?
Output: < 8.00

Input: Try the compound Cc1cnc(C(c2cc(F)ccc2Cl)C(C)c2nc(C(=O)Nc3cnoc3)c(O)c(=O)n2C)cn1 (single isomer, unassigned) [Example 117 D1E1]
Output: < 8.00

Input: Try the compound Cc1cc(C(c2cc(F)ccc2C#N)C(C)c2nc(C(=O)Nc3cnoc3)c(O)c(=O)n2C)nn1C (single isomer, unassigned) [Example 112 D2E2]
Output: < 8.00

Input: Try the compound CC(c1nc(C(=O)Nc2cnoc2)c(O)c(=O)n1C)C(c1cnn(CCO)c1)c1ccccc1C#N (single isomer, unassigned) [Example 35 D1E2]
Output: < 8.00

Input: Try the compound CC(c1nc(C(=O)Nc2cnoc2)c(O)c(=O)n1C)C(c1ccccc1Cl)c1nncn1C (single isomer, unassigned) [Example 152 D1E2]
Output: < 8.00

Input: Try the compound CC(c1nc(C(=O)Nc2cnoc2)c(O)c(=O)n1C)C(c1cnn(CC2CC2)c1)c1ccccc1C#N (single isomer, unassigned) [Example 23 D1E2]
Output: 8.00 to 9.00

---

- Experimental system: full length human TREX1 (Homo sapiens, UniProt Q9NSU2)
- Construct: N-terminally His-Tev tagged full length human TREX1; made in house; host or cells: E. coli
- Sequence (Q9NSU2 whole entry): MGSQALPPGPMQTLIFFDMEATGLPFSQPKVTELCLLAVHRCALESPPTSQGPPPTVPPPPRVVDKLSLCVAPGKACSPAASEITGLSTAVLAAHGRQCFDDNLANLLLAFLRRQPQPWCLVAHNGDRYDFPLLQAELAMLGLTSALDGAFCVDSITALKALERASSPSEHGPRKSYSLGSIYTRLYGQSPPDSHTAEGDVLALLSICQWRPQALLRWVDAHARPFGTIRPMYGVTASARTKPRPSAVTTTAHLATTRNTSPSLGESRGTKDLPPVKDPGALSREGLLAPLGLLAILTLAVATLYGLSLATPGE
- Assay method text: hTREX1 Biochemical Assay (fluorescence, dsDNA substrate degradation)
- Protocol conditions: biochemical, read-out: hTREX1 IC50
Readout name: IC50

Solved cases below.
CC(c1nc(C(=O)Nc2cnoc2)c(O)c(=O)n1C)C(c1cnn(CCOC(F)(F)F)c1)c1cc(F)ccc1Cl (single isomer, unassigned) [Example 98 D1E2] : > 10 nM
CC(c1nc(C(=O)Nc2cnoc2)c(O)c(=O)n1C)C(c1ccccc1C#N)c1c(C#N)cnn1C (single isomer, unassigned) [Example 52 D2E1] : > 10 nM
COCCCn1cc(C(c2ccccc2C#N)C(C)c2nc(C(=O)Nc3cnoc3)c(O)c(=O)n2C)cn1 (single isomer, unassigned) [Example 24 D1E2] : > 10 nM
CC(c1nc(C(=O)Nc2cnoc2)c(O)c(=O)n1C)C(c1nnn(C)n1)c1ccccc1C#N (single isomer, unassigned) [Example 79 D1E1] : > 10 nM
CC(c1nc(C(=O)Nc2cnoc2)c(O)c(=O)n1C)C(c1cnn(C)c1)c1c(C#N)cccc1C#N (single isomer, unassigned) [Example 19 D1E2] : < 1 nM

Input: IC50 for COCCn1cc(C(c2ccccc2C#N)C(C)c2nc(C(=O)Nc3cnoc3)c(O)c(=O)n2C)cn1 (single isomer, unassigned) [Example 9 D2E1] ?
Output: 1 to 10 nM

Input: Try the molecule CC(c1nc(C(=O)Nc2cnoc2)c(O)c(=O)n1C)C(c1cnn(C)c1)c1ccccc1C#N (single isomer, unassigned) [Example 2 D1E2]
Output: > 10 nM

Input: Try the molecule CC(c1nc(C(=O)Nc2cnoc2)c(O)c(=O)n1C)C(c1cnn(C)c1)c1ccncc1C#N (single isomer, unassigned) [Example 8 D2E2]
Output: 1 to 10 nM

Input: Try the molecule CC(c1nc(C(=O)Nc2cnoc2)c(O)c(=O)n1C)C(c1cnn(C)c1)c1cc(F)c(F)cc1C#N (single isomer, unassigned) [Example 25 D1E2]
Output: > 10 nM

Input: Try the molecule CC(c1nc(C(=O)Nc2cnoc2)c(O)c(=O)n1C)C(c1ccccc1Cl)c1cnn(C)c1C#N (single isomer, unassigned) [Example 96 D2E2]
Output: < 1 nM

Input: Try the molecule CC(c1nc(C(=O)Nc2cnoc2)c(O)c(=O)n1C)C(c1cnn(CCCN(C)C)c1)c1ccccc1C#N (single isomer, unassigned) [Example 34 D2E1]
Output: > 10 nM

Input: Try the molecule Cc1cnc(C)c(C(c2ccccc2C#N)C(C)c2nc(C(=O)Nc3cnoc3)c(O)c(=O)n2C)n1 (single isomer, unassigned) [Example 82 D1E2]
Output: > 10 nM

---

- Experimental system: full length mouse TREX1 (Mus musculus)
- Construct: N-terminally His-Tev tagged full length mouse TREX1; made in house; host or cells: E. coli
- Assay method text: mTREX1 Biochemical Assay (fluorescence, dsDNA substrate degradation)
- Protocol conditions: mTREX1 IC50, biochemical
Readout name: IC50

Cc1ccnn1C(c1ccccc1Cl)C(C)c1nc(C(=O)Nc2cnoc2)c(O)c(=O)n1C (single isomer, unassigned) [Example 54 D1E2] : > 10 nM

Input: Tell me reported IC50 for Cc1ccnn1C(c1ccccc1Cl)C(C)c1nc(C(=O)Nc2cnoc2)c(O)c(=O)n1C (single isomer, unassigned) [Example 54 D1E1] , tested with full length mouse TREX1 (Mus musculus).
Output: 1 to 10 nM

---

Reported values of IC50 for individual entries
- Experimental system: full length mouse TREX1 (Mus musculus, UniProt Q91XB0)
- Construct: N-terminally His-Tev tagged full length mouse TREX1; made in house; host or cells: E. coli
- Sequence (Q91XB0 1-314): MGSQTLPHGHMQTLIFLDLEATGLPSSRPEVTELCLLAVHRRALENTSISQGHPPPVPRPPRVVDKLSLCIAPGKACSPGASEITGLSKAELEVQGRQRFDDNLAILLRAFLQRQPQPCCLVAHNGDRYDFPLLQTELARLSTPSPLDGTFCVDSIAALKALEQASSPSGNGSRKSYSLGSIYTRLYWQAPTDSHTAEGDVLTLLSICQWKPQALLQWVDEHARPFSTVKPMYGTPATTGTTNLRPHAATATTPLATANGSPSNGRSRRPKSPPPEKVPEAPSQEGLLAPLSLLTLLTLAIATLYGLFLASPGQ
- Assay method text: mTREX1 Biochemical Assay (fluorescence, dsDNA substrate degradation)
- Protocol conditions: biochemical, read-out: mTREX1 IC50

Solved cases below.
CC(c1nc(C(=O)Nc2cnoc2)c(O)c(=O)n1C)C(c1cnn(CCN2CCN(C(=O)OC(C)(C)C)CC2)c1)c1ccccc1C#N (single isomer, unassigned) [Example 21 D1E1] : 1 to 10 nM
Cc1ccnn1C(c1cc(F)ccc1Cl)C(C)c1nc(C(=O)Nc2cnoc2)c(O)c(=O)n1C (single isomer, unassigned) [Example 145 D1E1] : > 10 nM

Kindly consider the entry below.
Input: Tell me reported IC50 for Cc1cc(C)n(C(c2ccccc2Cl)C(C)c2nc(C(=O)Nc3cnoc3)c(O)c(=O)n2C)n1 (single isomer, unassigned) [Example 136 D1E1] , tested with full length mouse TREX1 (Mus musculus, UniProt Q91XB0).
Output: > 10 nM

---

- Experimental system: full length mouse TREX1 (Mus musculus)
- Construct: N-terminally His-Tev tagged full length mouse TREX1; made in house; host or cells: E. coli
- Assay method text: mTREX1 Biochemical Assay (fluorescence, dsDNA substrate degradation)
- Protocol conditions: biochemical, read-out: mTREX1 IC50
pIC50: −log10 of the molar value.
Readout name: pIC50

Solved cases below.
COCCn1cc(C(c2ccccc2C#N)C(C)c2nc(C(=O)Nc3cnoc3)c(O)c(=O)n2C)cn1 (single isomer, unassigned) [Example 9 D2E1] : < 8.00
Cc1nn(C)cc1C(c1ccccc1C#N)C(C)c1nc(C(=O)Nc2cnoc2)c(O)c(=O)n1C (single isomer, unassigned) [Example 3 D2E1] : < 8.00
CCn1cc(C(c2cc(F)ccc2Cl)C(C)c2nc(C(=O)Nc3cnoc3)c(O)c(=O)n2C)cn1 (single isomer, unassigned) [Example 60 D2E1] : < 8.00

Kindly consider the entry below.
Input: pIC50 for CC(c1nc(C(=O)Nc2cnoc2)c(O)c(=O)n1C)C(c1cnn(CC(F)(F)F)c1)c1ccccc1C#N (single isomer, unassigned) [Example 22 D2E2] ?
Output: < 8.00

---

Reported values of IC50 for individual entries
- Experimental system: hTREX1 (Homo sapiens)
- Assay method text: hTREX1 HCT116 Cell Assay (HCT116 dual cells, Lucia luciferase reporter of Type I interferon induction)
- Protocol conditions: TREX1i 4 h before pBR322/BstNI transfection, read after 48 h

Solved cases below.
CC(c1nc(C(=O)Nc2cnoc2)c(O)c(=O)n1C)C(c1ccccc1C#N)c1cn(C)nc1C#N (single isomer, unassigned) [Example 10 D1E1] : < 0.01 µM
CCn1cc(C(c2ccccc2C#N)C(C)c2nc(C(=O)Nc3cnoc3)c(O)c(=O)n2C)c(C)n1 (single isomer, unassigned) [Example 70 D1E1] : < 0.01 µM
CC(c1nc(C(=O)Nc2cnoc2)c(O)c(=O)n1C)C(c1cnn(C)c1)c1ccc(O)cc1C#N (single isomer, unassigned) [Example 80 D1E1] : > 0.1 µM
CC(c1nc(C(=O)Nc2cnoc2)c(O)c(=O)n1C)C(c1ccccc1Cl)n1cc2ccccc2n1 (single isomer, unassigned) [Example 141 D1E1] : > 0.1 µM
CC(c1nc(C(=O)Nc2cnoc2)c(O)c(=O)n1C)C(c1ccccc1C#N)c1c[nH]nc1F (single isomer, unassigned) [Example 127 D1E1] : < 0.01 µM
Cc1cnc(C(c2cc(F)ccc2C#N)C(C)c2nc(C(=O)Nc3cnoc3)c(O)c(=O)n2C)cn1 (single isomer, unassigned) [Example 115 D2E2] : > 0.1 µM
Cc1cc(C(c2cc(F)ccc2C#N)C(C)c2nc(C(=O)Nc3cnoc3)c(O)c(=O)n2C)nn1C (single isomer, unassigned) [Example 112 D2E1] : > 0.1 µM
Cc1ncc(C(c2ccccc2Cl)C(C)c2nc(C(=O)Nc3cnoc3)c(O)c(=O)n2C)nc1C (single isomer, unassigned) [Example 125 D1E2] : < 0.01 µM
CC(c1nc(C(=O)Nc2cnoc2)c(O)c(=O)n1C)C(c1cnn(C)c1)c1ccncc1C#N (single isomer, unassigned) [Example 8 D2E2] : > 0.1 µM
CC(c1nc(C(=O)Nc2cnoc2)c(O)c(=O)n1C)C(c1cnn(C(F)(F)F)c1)c1ccccc1C#N (single isomer, unassigned) [Example 151 D1E1] : 0.01 to 0.1 µM

Input: Tell me reported IC50 for CC(c1nc(C(=O)Nc2cnoc2)c(O)c(=O)n1C)C(c1cnn(C)c1)c1ccccc1Cl (single isomer, unassigned) [Example 77 D1E1] , tested with hTREX1 (Homo sapiens).
Output: 0.01 to 0.1 µM

Input: Try the compound CC(c1nc(C(=O)Nc2cnoc2)c(O)c(=O)n1C)C(c1cn[nH]c1)c1ccccc1C#N (single isomer, unassigned) [Example 12 D1E1]
Output: 0.01 to 0.1 µM

Input: Try the compound COC(C)(C)Cn1cc(C(c2cc(F)ccc2Cl)C(C)c2nc(C(=O)Nc3cnoc3)c(O)c(=O)n2C)cn1 (single isomer, unassigned) [Example 93 D1E2]
Output: > 0.1 µM

Input: Try the compound CCn1cc(C(c2ccc(F)cc2C#N)C(C)c2nc(C(=O)Nc3cnoc3)c(O)c(=O)n2C)cn1 (single isomer, unassigned) [Example 16 D1E1]
Output: < 0.01 µM

Input: Try the compound Cc1cnc(C)c(C(c2ccccc2C#N)C(C)c2nc(C(=O)Nc3cnoc3)c(O)c(=O)n2C)n1 (single isomer, unassigned) [Example 82 D1E1]
Output: < 0.01 µM

Input: Try the compound Cc1cc(C(c2cc(F)ccc2Cl)C(C)c2nc(C(=O)Nc3cnoc3)c(O)c(=O)n2C)n(C)n1 (single isomer, unassigned) [Example 113 D1E1]
Output: 0.01 to 0.1 µM

Input: Try the compound CC(c1nc(C(=O)Nc2cnoc2)c(O)c(=O)n1C)C(c1ccccc1C#N)c1c(C#N)cnn1C (single isomer, unassigned) [Example 52 D2E1]
Output: > 0.1 µM

Input: Try the compound CCn1ncc(C(c2ccc(F)cc2C#N)C(C)c2nc(C(=O)Nc3cnoc3)c(O)c(=O)n2C)c1C (single isomer, unassigned) [Example 65 D1E1]
Output: < 0.01 µM

Input: Try the compound CC(c1nc(C(=O)Nc2cnoc2)c(O)c(=O)n1C)C(c1cnn(CCOC(F)(F)F)c1)c1cc(F)ccc1Cl (single isomer, unassigned) [Example 98 D1E1]
Output: > 0.1 µM

Input: Try the compound Cc1cnc(C(c2ccccc2Cl)C(C)c2nc(C(=O)Nc3cnoc3)c(O)c(=O)n2C)cn1 (single isomer, unassigned) [Example 116 D1E2]
Output: 0.01 to 0.1 µM

Input: Try the compound Cc1nn(C)cc1C(c1ccccc1C#N)C(C)c1nc(C(=O)Nc2cnoc2)c(O)c(=O)n1C (single isomer, unassigned) [Example 3 D1E1]
Output: < 0.01 µM

Input: Try the compound Cc1nc(C)c(C(c2ccccc2C#N)C(C)c2nc(C(=O)Nc3cnoc3)c(O)c(=O)n2C)nc1C (single isomer, unassigned) [Example 122 D1E1]
Output: < 0.01 µM

Input: Try the compound Cc1ccc(C(c2ccccc2C#N)C(C)c2nc(C(=O)Nc3cnoc3)c(O)c(=O)n2C)cn1 (single isomer, unassigned) [Example 5 D2E2]
Output: > 0.1 µM
